Readings of pKd for the listed binders
Target: T1, human OPGbp [143-317] (human, UniProt O14788 143-317)
T1 construct: also called OPGL
T1 sequence (looked up): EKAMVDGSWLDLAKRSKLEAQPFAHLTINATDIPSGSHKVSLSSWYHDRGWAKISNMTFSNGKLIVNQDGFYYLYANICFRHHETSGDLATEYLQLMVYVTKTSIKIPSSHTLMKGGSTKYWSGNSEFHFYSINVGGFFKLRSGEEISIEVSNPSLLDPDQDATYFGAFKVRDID
Test: SPR (BIAcore), immobilized OPGbp [143-317]
pKd: −log10 of the molar value.
MEASURE_NAME: pKd

BINDER	MEASURED_VALUE
“AT” antibody variant S97V (heavy chain CDR3) (antibody, name in Kabat numbering, V domains shown, not shown: human IgG1 CH1, hinge, CH2 and CH3) VH: QVQLVQSGAEVRKPGASVKVSCKASGYDFSNYAIHWVRQAPGQRLEWMGWINAGNGNTKFSQKFQGRITVTRDTAASTAYMELRSLRSEDTAVYYCARDSVNMVRGIIIAYYFDYWGQGTLVTVSS VL: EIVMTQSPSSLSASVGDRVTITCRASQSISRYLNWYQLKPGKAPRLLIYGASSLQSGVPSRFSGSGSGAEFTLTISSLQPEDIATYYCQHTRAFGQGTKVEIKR	8.93
“AT” antibody variant S97L (heavy chain CDR3) (antibody, name in Kabat numbering, V domains shown, not shown: human IgG1 CH1, hinge, CH2 and CH3) VH: QVQLVQSGAEVRKPGASVKVSCKASGYDFSNYAIHWVRQAPGQRLEWMGWINAGNGNTKFSQKFQGRITVTRDTAASTAYMELRSLRSEDTAVYYCARDSLNMVRGIIIAYYFDYWGQGTLVTVSS VL: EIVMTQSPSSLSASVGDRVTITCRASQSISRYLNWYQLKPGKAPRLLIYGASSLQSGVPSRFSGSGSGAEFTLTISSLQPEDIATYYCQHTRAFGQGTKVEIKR	9.04
